measured.target: UniProt:P45983
Sequence (P45983 whole entry, looked up): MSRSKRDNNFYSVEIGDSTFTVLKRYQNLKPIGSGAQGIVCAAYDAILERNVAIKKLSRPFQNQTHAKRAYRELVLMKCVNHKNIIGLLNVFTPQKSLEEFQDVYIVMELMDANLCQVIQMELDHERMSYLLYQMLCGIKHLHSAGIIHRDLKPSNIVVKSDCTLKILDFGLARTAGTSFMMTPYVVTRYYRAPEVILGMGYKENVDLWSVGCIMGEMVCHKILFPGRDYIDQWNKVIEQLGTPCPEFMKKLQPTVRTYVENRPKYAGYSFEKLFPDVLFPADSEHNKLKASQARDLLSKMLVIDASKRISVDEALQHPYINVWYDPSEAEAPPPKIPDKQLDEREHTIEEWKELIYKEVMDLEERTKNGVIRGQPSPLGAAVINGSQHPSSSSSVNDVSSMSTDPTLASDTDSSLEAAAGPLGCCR
test.description: radiometric filter-binding kinase assay
stated.conditions: compound 10.0 µM
Listing: residual activity of selected compounds
The response must be a number in % with no trailing unit.

# count of solved cases: 3
item.smiles: COc1cc2ncn(-c3cc(OCc4ccccc4S(C)(=O)=O)c(C#N)s3)c2cc1OC
residual activity [%]: 87

item.smiles: CCn1c(-c2nonc2N)nc2cncc(CNC3CCNCC3)c21
residual activity [%]: 101

item.smiles: Cn1nc(Nc2ccc(F)cc2)c2c(N)ncnc21
residual activity [%]: 102

# input Item: "Oc1ccc2ccccc2c1SSc1c(O)ccc2ccccc12" Test system: UniProt:P45983 Read-out: residual activity Value: ?
# output 89

----------
Listing: residual activity of selected compounds
measured.target: IGF1R (human)
test.description: radiometric filter-binding kinase assay
stated.conditions: compound 10.0 µM
The response must be a number in % with no trailing unit.

item.smiles: NCC(=O)Nc1ccc(-n2nc(C(F)(F)F)cc2-c2ccc3c(ccc4ccccc43)c2)cc1
measured.target: IGF1R (human)
result.units: %
residual activity: 105
//
item.smiles: NS(=O)(=O)OC[C@@H]1C[C@@H](n2ccc3c(N[C@H]4CCc5ccccc54)ncnc32)C[C@@H]1O
measured.target: IGF1R (human)
result.units: %
residual activity: 88
//
item.smiles: N#Cc1c(C2CCNCC2)cc(-c2c(O)cccc2OCC2CC2)nc1N
measured.target: IGF1R (human)
result.units: %
residual activity: 35
//
item.smiles: NC(=O)c1c(NC(=O)C2CC2)sc2c1CCCC2
measured.target: IGF1R (human)
result.units: %
residual activity: 79
//
item.smiles: Cc1ccc(Sc2cnc(Nc3cccc(Br)n3)s2)cc1C(=O)N1CCN(C(=O)CN)CC1
measured.target: IGF1R (human)
result.units: %
residual activity: 2
//
item.smiles: O=C1NC(=S)N[C@@H]1Cc1c[nH]c2ccccc12
measured.target: IGF1R (human)
result.units: %
residual activity: 100
//
item.smiles: CCCC(CCC)C(=O)O
measured.target: IGF1R (human)
result.units: %
residual activity: 76
//
item.smiles: Oc1ccc2ccccc2c1SSc1c(O)ccc2ccccc12
measured.target: IGF1R (human)
result.units: %
residual activity: 84
//
item.smiles: O=C(O)c1ccc(-c2c[nH]c3ncc(-c4ccccc4)cc23)cc1C1CCCC1
measured.target: IGF1R (human)
result.units: %
residual activity: 18
//
item.smiles: N#Cc1c(O)c2c(-c3ccc(-c4ccccc4O)cc3)csc2[nH]c1=O
measured.target: IGF1R (human)
result.units: %
residual activity: 94

Query compound follows.
# input Tell me the measured residual activity of "Cc1ccc2c(c1)C(=O)[C@@]1(O)CCN(c3ccccc3)C1=N2" , please.
# output 88

----------
measured.target: MAPK13 (human)
test.description: radiometric filter-binding kinase assay
stated.conditions: compound 1.0 µM
parameter: residual activity (%)
The response must be a number in % with no trailing unit.

# count of solved cases: 5
item.smiles: Cc1ccc(Sc2cnc(Nc3cccc(Br)n3)s2)cc1C(=O)N1CCN(C(=O)CN)CC1
result.units: %
observed: 24
//
item.smiles: C=CC(=O)N1CCC[C@@H](n2nc(-c3ccc(Oc4ccccc4)cc3)c3c(N)ncnc32)C1
result.units: %
observed: 104
//
item.smiles: Oc1ccc2ccccc2c1SSc1c(O)ccc2ccccc12
result.units: %
observed: 102
//
item.smiles: COc1ccc(N(C(=O)Nc2c(C)cccc2C)c2cc(Nc3ccc(N4CCN(C)CC4)cc3)ncn2)c(OC)c1
result.units: %
observed: 98
//
item.smiles: NCC(=O)Nc1ccc(-n2nc(C(F)(F)F)cc2-c2ccc3c(ccc4ccccc43)c2)cc1
result.units: %
observed: 96

# input Tell me the measured residual activity of "CCCC(CCC)C(=O)O" , please.
# output 106

# input Also need "O=C(O)c1ccc(-c2c[nH]c3ncc(-c4ccccc4)cc23)cc1C1CCCC1" , thanks.
# output 87

# input Also need "COc1cc2ncn(-c3cc(OCc4ccccc4S(C)(=O)=O)c(C#N)s3)c2cc1OC" , thanks.
# output 112

# input Also need "Cc1nc(-c2ccc(OCC(C)C)c(C#N)c2)sc1C(=O)O" , thanks.
# output 103

# input Also need "O=c1c(O)c(-c2ccc(O)c(O)c2)oc2cc(O)c(O)c(O)c12" , thanks.
# output 96

# input Also need "NS(=O)(=O)OC[C@@H]1C[C@@H](n2ccc3c(N[C@H]4CCc5ccccc54)ncnc32)C[C@@H]1O" , thanks.
# output 92

# input Also need "Cc1cccc(-c2nn(C(=S)Nc3ccccc3)cc2-c2ccnc3ccccc23)n1" , thanks.
# output 94

# input Also need "Cn1nc(Nc2ccc(F)cc2)c2c(N)ncnc21" , thanks.
# output 104

# input Also need "c1ccc2c(-c3cnn4cc(-c5ccc(N6CCNCC6)cc5)cnc34)ccnc2c1" , thanks.
# output 110

----------
measured.target: PLK1 (human) (UniProt P53350)
Sequence (P53350 whole entry, looked up): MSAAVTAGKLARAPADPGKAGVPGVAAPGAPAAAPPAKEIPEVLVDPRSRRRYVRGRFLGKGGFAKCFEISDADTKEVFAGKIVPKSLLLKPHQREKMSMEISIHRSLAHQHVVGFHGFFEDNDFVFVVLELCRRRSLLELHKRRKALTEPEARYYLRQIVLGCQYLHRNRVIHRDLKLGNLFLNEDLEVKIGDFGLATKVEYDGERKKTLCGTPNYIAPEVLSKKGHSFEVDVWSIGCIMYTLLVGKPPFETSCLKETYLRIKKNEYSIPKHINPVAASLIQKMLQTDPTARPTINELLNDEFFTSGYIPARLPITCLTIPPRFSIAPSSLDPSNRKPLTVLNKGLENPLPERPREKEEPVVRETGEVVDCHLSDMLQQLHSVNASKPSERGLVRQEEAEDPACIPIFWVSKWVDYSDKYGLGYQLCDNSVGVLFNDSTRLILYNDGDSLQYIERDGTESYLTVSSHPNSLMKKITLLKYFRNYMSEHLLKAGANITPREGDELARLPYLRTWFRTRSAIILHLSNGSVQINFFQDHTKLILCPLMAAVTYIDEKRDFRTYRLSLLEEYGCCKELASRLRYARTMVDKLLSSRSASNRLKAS
test.description: radiometric filter-binding kinase assay
stated.conditions: compound 1.0 µM
parameter: residual activity (%)
The response must be a number in % with no trailing unit.

# count of solved cases: 5
compound: O=C(NOCC(O)CO)c1ccc(F)c(F)c1Nc1ccc(I)cc1Cl (stereo not drawn)
measured.target: PLK1 (human) (UniProt P53350)
residual activity (%): 97
//
compound: O=C(Nc1nc2cc(C(F)(F)F)cc(NC3CC3)n2n1)c1cccnc1
measured.target: PLK1 (human) (UniProt P53350)
residual activity (%): 103
//
compound: Cc1cccc(-c2nn(C(=S)Nc3ccccc3)cc2-c2ccnc3ccccc23)n1
measured.target: PLK1 (human) (UniProt P53350)
residual activity (%): 106
//
compound: O=C1Nc2nc(-c3c(O)cccc3OCC3CC3)cc(C3CCCNC3)c2CO1 (stereo not drawn)
measured.target: PLK1 (human) (UniProt P53350)
residual activity (%): 83
//
compound: COc1ccc(-n2ncc3cnc(Nc4cc(OC)c(OC)c(OCCCN5CCN(C)CC5)c4)nc32)cc1
measured.target: PLK1 (human) (UniProt P53350)
residual activity (%): 91

# input Tell me the measured residual activity of "O=C1NC(=S)N[C@@H]1Cc1c[nH]c2ccccc12" , please.
# output 97

# input Also need "Cc1cccc(Nc2nn(C)c3ncnc(N)c23)c1" , thanks.
# output 96

----------
measured.target: MAP3K11 (human) (UniProt Q16584)
Sequence (Q16584 whole entry, looked up): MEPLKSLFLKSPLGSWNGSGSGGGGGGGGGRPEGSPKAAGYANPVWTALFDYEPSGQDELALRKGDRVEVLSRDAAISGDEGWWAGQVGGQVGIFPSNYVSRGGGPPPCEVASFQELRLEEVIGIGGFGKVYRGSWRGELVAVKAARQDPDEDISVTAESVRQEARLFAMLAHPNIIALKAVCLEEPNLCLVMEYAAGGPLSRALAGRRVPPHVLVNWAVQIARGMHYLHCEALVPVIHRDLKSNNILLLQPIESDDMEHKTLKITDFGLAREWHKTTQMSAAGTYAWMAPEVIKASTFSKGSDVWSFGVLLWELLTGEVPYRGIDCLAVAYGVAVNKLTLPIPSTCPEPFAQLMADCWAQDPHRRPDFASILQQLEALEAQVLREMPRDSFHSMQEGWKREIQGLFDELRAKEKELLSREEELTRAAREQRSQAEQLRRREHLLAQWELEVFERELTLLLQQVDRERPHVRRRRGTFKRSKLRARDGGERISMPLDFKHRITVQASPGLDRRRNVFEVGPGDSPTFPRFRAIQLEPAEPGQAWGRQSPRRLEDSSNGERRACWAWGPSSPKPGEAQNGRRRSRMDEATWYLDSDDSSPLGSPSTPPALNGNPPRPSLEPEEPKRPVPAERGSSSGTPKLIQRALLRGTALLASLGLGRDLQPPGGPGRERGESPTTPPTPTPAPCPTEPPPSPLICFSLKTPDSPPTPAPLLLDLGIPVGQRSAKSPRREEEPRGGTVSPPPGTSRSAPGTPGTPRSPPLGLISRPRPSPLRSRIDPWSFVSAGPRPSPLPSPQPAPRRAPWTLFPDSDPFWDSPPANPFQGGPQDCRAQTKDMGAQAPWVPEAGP
test.description: radiometric filter-binding kinase assay
stated.conditions: compound 1.0 µM
parameter: residual activity (%)
The response must be a number in % with no trailing unit.

compound: Cc1cccc(-c2nn(C(=S)Nc3ccccc3)cc2-c2ccnc3ccccc23)n1
parameter: residual activity
observed: 107

# input Tell me the measured residual activity of "Cc1ccc(Sc2cnc(Nc3cccc(Br)n3)s2)cc1C(=O)N1CCN(C(=O)CN)CC1" , please.
# output 77

# input Also need "CC(C)(C#N)c1ccc(N2C(=O)OCc3cnc4ccc(-c5cnc6ccccc6c5)cc4c32)cc1" , thanks.
# output 81

# input Also need "COc1ccc(N(C(=O)Nc2c(C)cccc2C)c2cc(Nc3ccc(N4CCN(C)CC4)cc3)ncn2)c(OC)c1" , thanks.
# output 70

# input Also need COc1cc(O)c2c(c1)[C@H]1OC1C[C@H](O)[C@H](O)C(=O)/C=C\C[C@H](C)OC2=O (stereo not given in full) , thanks.
# output 90

----------
Listing: residual activity of selected compounds
measured.target: UniProt Q16832
Sequence (Q16832 whole entry, looked up): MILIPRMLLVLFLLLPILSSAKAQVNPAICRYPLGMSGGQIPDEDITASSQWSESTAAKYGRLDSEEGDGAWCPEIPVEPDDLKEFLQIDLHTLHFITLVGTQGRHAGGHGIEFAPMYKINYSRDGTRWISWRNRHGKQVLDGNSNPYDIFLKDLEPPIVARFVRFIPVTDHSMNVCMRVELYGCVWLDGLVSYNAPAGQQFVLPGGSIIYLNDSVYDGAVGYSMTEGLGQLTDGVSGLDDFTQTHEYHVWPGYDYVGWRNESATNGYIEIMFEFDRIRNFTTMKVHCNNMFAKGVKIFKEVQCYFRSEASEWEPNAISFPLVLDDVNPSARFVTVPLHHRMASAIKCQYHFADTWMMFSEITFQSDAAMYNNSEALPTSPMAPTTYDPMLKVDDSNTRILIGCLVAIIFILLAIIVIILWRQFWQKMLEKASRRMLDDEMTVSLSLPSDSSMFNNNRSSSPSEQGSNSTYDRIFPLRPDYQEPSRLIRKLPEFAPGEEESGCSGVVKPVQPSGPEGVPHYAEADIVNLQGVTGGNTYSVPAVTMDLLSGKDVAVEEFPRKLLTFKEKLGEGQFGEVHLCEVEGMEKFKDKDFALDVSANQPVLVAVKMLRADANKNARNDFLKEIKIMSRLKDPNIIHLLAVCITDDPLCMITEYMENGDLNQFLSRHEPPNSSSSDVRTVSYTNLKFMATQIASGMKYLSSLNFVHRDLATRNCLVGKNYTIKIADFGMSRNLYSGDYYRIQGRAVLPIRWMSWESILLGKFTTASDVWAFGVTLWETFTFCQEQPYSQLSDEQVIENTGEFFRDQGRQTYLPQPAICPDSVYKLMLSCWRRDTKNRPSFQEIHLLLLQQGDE
test.description: radiometric filter-binding kinase assay
stated.conditions: compound 1.0 µM
The response must be a number in % with no trailing unit.

# count of solved cases: 4
compound: CC1=C(CO)C(=O)O[C@@H]([C@@H](C)[C@H]2CC[C@H]3[C@@H]4C[C@H]5O[C@]56[C@@H](O)C=CC(=O)[C@]6(C)C4CC[C@]23C)C1 (stereo partly specified)
parameter: residual activity
observed: 100

compound: CN(C)C/C=C/C(=O)Nc1cccc(C(=O)Nc2ccc(Nc3nccc(-c4cccnc4)n3)cc2)c1
parameter: residual activity
observed: 108

compound: Cc1cc(NC(=O)c2cccc(NC(=O)/C=C/CN(C)C)c2)ccc1Nc1nccc(-c2cccnc2)n1
parameter: residual activity
observed: 97

compound: C=C1C(=O)OC2C1CC/C(C)=C/CCC1(C)OC21 (stereo unspecified)
parameter: residual activity
observed: 105

# input Tell me the measured residual activity of "CCNc1nc(Nc2cc(F)c(C(=O)N3CCOCC3)cc2OC)ncc1C(F)(F)F" , please.
# output 97

# input Also need Nc1cccc2c1CN(C1CCC(=O)NC1=O)C2=O (stereo unspecified) , thanks.
# output 102

----------
measured.target: DYRK3 (human)
test.description: radiometric filter-binding kinase assay
stated.conditions: compound 10.0 µM
Listing: residual activity of selected molecules
The response must be a number in % with no trailing unit.

molecule: COc1cc2ncn(-c3cc(OCc4ccccc4S(C)(=O)=O)c(C#N)s3)c2cc1OC
parameter: residual activity
observed: 82
--
molecule: O=C(O)c1ccc(-c2c[nH]c3ncc(-c4ccccc4)cc23)cc1C1CCCC1
parameter: residual activity
observed: 17
--
molecule: COc1ccc2c(c1)c1c3c(c4c5ccccc5n(C)c4c1n2CC(O)CN(C)C)C(=O)NC3=O (stereo unspecified)
parameter: residual activity
observed: 24

# input Tell me the measured residual activity of "COC(=O)/C=C/C(=O)OC" , please.
# output 105

# input Also need "CC(C)(C#N)c1ccc(N2C(=O)OCc3cnc4ccc(-c5cnc6ccccc6c5)cc4c32)cc1" , thanks.
# output 64

# input Also need "C[C@H]1CCCC(=O)CCC/C=C/c2cc(O)cc(O)c2C(=O)O1" , thanks.
# output 62

# input Also need Nc1cccc2c1CN(C1CCC(=O)NC1=O)C2=O (stereo unspecified) , thanks.
# output 99

# input Also need "CCNc1nc(Nc2cc(F)c(C(=O)N3CCOCC3)cc2OC)ncc1C(F)(F)F" , thanks.
# output 58

# input Also need "CCn1c(-c2nonc2N)nc2cncc(CNC3CCNCC3)c21" , thanks.
# output 72

# input Also need "O=C(N[C@@H](COc1ccc2[nH]c(=O)[nH]c2c1)c1ccccc1)c1cccn(Cc2ccc(F)c(F)c2)c1=O" , thanks.
# output 93

# input Also need "Cc1ccc(-c2ccc3c(ccc4sc5c(c43)NC[C@@H](C)NC5=O)n2)cn1" , thanks.
# output 40

# input Also need "CCCC(CCC)C(=O)O" , thanks.
# output 87

# input Also need "N#Cc1c(C2CCNCC2)cc(-c2c(O)cccc2OCC2CC2)nc1N" , thanks.
# output 40

# input Also need "NC(=O)c1cc2c(-c3cccc(-c4ccccc4)c3)cnc(N)c2s1" , thanks.
# output 59

# input Also need "Cc1ccc(=O)n(-c2ccccc2)c1" , thanks.
# output 93

# input Also need "Cc1cc(SCc2sc(-c3ccc(C(F)(F)F)cc3)nc2C)ccc1OCC(=O)O" , thanks.
# output 81

# input Also need "O=S(=O)(c1ccc(F)c2nonc12)N1CCN(c2ncc(C(F)(F)F)cc2Cl)CC1" , thanks.
# output 91

# input Also need "Cn1nc(Nc2ccc(F)cc2)c2c(N)ncnc21" , thanks.
# output 101
